Would you kindly list binding signal for each of these sequences?
experimentalTarget: OsWRKY34 (Oryza sativa, UniProt Q0JBA9 1-250)
Sequence (Q0JBA9 entry or part of it): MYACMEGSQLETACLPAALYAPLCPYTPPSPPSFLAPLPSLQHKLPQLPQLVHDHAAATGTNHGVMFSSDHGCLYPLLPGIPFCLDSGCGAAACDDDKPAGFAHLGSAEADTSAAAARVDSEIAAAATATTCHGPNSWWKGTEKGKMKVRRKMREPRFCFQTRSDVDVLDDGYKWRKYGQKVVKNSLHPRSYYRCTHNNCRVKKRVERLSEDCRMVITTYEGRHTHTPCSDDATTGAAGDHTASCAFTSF
methodNotes: protein-binding microarray (RPBM); PBS, 2% BSA, 51.3 ng/ul salmon testes DNA, 50 uM zinc acetate, 200 nM TF, 25 C, 1 h; high values mean tight binding
assayConditions: protein: recombinant; tags: N-terminal polyhistidine and DsRed monomer fusion (pET32a); label: CyDye5-dUTP incorporated in the synthesized complementary strand; 3' TTTTT single-stranded linker to array surface; dsDNA, one strand shown
Whole data set: some 68,000 sequences, median “fluorescence intensity (a.u.)” near 9,100, cut for the highest 2% near 16,000. This excerpt belongs to a sample that is enriched for the highest values.

Reported binding signal ( CGCGAGACAATCTAGCCGTTCTTCATTTTTTTCGCTTTCCCGGAGTCACCTAGTGCAG ) = 9240 fluorescence intensity (a.u.)

Reported binding signal ( AGAGCTTAATTTGGTATGTGTGTGTATATATATATATATACGGAGTCACCTAGTGCAG ) = 8150 fluorescence intensity (a.u.)

Reported binding signal ( CCCTTGGGTTGGGTTGTGTTGCTCCCTCTGCTGCATTAATCGGAGTCACCTAGTGCAG ) = 18100 fluorescence intensity (a.u.)

Reported binding signal ( CTGTATTCATTAGGGTGGGACTGTATACTATAGTTATTATCGGAGTCACCTAGTGCAG ) = 15700 fluorescence intensity (a.u.)

Reported binding signal ( TATATCATATGCGGGCGTGATCTATTGGGGCGGGGTGTGGCGGAGTCACCTAGTGCAG ) = 20000 fluorescence intensity (a.u.)

Reported binding signal ( TCTTCTCACTCTAATCAAATCTCTCTCTCTCTCTCTCTCTCGGAGTCACCTAGTGCAG ) = 8280 fluorescence intensity (a.u.)

Reported binding signal ( CTTTTCCATTTCCATGCATTCTTTGATCATCAAGTGATCACGGAGTCACCTAGTGCAG ) = 12100 fluorescence intensity (a.u.)

Reported binding signal ( CTGCTGTGTTGCACATTTTTCTGCTCTGTATACCTATAATCGGAGTCACCTAGTGCAG ) = 12200 fluorescence intensity (a.u.)

Reported binding signal ( GATTTGATGGATTTGTTGAGAGATATGCTTCTTAAGCCAACGGAGTCACCTAGTGCAG ) = 8300 fluorescence intensity (a.u.)

Reported binding signal ( GTCTCTCTCACCGTCTCCGTGCTCCTCCGCCGCCCAAGGGCGGAGTCACCTAGTGCAG ) = 12900 fluorescence intensity (a.u.)

Reported binding signal ( GCTCCTCCTCCTCTTCCCGCCTCACCGCCGCACCACCTCTCGGAGTCACCTAGTGCAG ) = 8550 fluorescence intensity (a.u.)

Reported binding signal ( TATCCGATCCATGGCGTTCTCTTGAGTCCAGAGAGTATTTCGGAGTCACCTAGTGCAG ) = 8460 fluorescence intensity (a.u.)

Reported binding signal ( AGGGAGGAGTACATCTAGTAGTATAGGGGAGAGGGTGGGCCGGAGTCACCTAGTGCAG ) = 11500 fluorescence intensity (a.u.)

Reported binding signal ( TCAGTCTGTACACGCCTACACCAGAGTCCAGTGGTCCTAACGGAGTCACCTAGTGCAG ) = 8100 fluorescence intensity (a.u.)

Reported binding signal ( TGCACCTGTTTGGCTTAGTACCAGTGCGCTACTGGTTTCACGGAGTCACCTAGTGCAG ) = 9680 fluorescence intensity (a.u.)

Reported binding signal ( GGGGTGGTTTTGGCTGAGCTGCTTGTGTCCTCTTCTTGCTCGGAGTCACCTAGTGCAG ) = 18400 fluorescence intensity (a.u.)

Reported binding signal ( CAGCTCGAGCTGTTTGCTTGTGGGGTTCTTGTTTTTCTTTCGGAGTCACCTAGTGCAG ) = 8020 fluorescence intensity (a.u.)

Reported binding signal ( TGGGTGGGTGCGGCGTGGAGTGACGTGGCGGCGGGTGTGGCGGAGTCACCTAGTGCAG ) = 8590 fluorescence intensity (a.u.)

Reported binding signal ( TTGTGCTGGTTTTGGTTTTGGTTTTGGGTTGCATGTATGTCGGAGTCACCTAGTGCAG ) = 9790 fluorescence intensity (a.u.)

Reported binding signal ( CATCGCCACCACCGCAGCCGCCTCTCAATTAGGAACACGTCGGAGTCACCTAGTGCAG ) = 10300 fluorescence intensity (a.u.)

Reported binding signal ( ACATCCTTCTGGGTTGATTTTTTTCTATAGAGGGGTAGGTCGGAGTCACCTAGTGCAG ) = 8590 fluorescence intensity (a.u.)

Reported binding signal ( GTACTATGTATTGTCCCATCGTTGTATAGGTTGGTTTTTTCGGAGTCACCTAGTGCAG ) = 8240 fluorescence intensity (a.u.)

Reported binding signal ( TTGTGTATTGGTGCTGTCGGTGCATGGGTGGTGGTTTTTTCGGAGTCACCTAGTGCAG ) = 20700 fluorescence intensity (a.u.)

Reported binding signal ( CCCGGCCTTAGCATACTATTATTTTAGCACTAATCTTAACCGGAGTCACCTAGTGCAG ) = 9300 fluorescence intensity (a.u.)

Reported binding signal ( GCTATGTAATGTCCCATCCGTGCTGTATAGTTTGGGTTTTCGGAGTCACCTAGTGCAG ) = 17200 fluorescence intensity (a.u.)

Origin of the recorded values: paper PMC7819943
